System: MDR1 (human)
test description: Apparent permeability across basolateral to apical side in MDCK transfected with human MDR1 cells incubated for 1 hr by LC-MS analysis
run conditions: dog, MDCK-MDR1

chemical string	Papp B→A at 1 h
CCC1=C(CC)/C(=C/NC2CCCCCC2)N=C1c1ccc(Br)[nH]1	0.001 ×10⁻⁶ cm/s
CCC1=C(CC)/C(=C/NC2CCCCCCC2)N=C1c1ccc(-c2ccccc2)[nH]1	0.002 ×10⁻⁶ cm/s
CC1=C(C)/C(=C/NC2CCCCCC2)N=C1c1ccc(C)[nH]1	0.12 ×10⁻⁶ cm/s
CCC1=C(CC)/C(=C/NC2CCCCC2)N=C1c1ccc(-c2ccccc2)[nH]1	0.003 ×10⁻⁶ cm/s
CCC1=C(CC)/C(=C/NC23C[C@H]4C[C@@H](C2)C[C@@H](C3)C4)N=C1c1cc2cc(OC)ccc2[nH]1	0.001 ×10⁻⁶ cm/s
CCC1=C(C)/C(=C/NC2CCCCC2)N=C1c1ccc(C)[nH]1	0.099 ×10⁻⁶ cm/s
CCC1=C(CC)/C(=C/NC2CCCCC2)N=C1c1ccc(C)[nH]1	0.002 ×10⁻⁶ cm/s

---

System: MDR1 (human)
test description: Apparent permeability across apical to basolateral side in MDCK transfected with human MDR1 cells incubated for 1 hr by LC-MS analysis
run conditions: dog, MDCK-MDR1
Each entry below lists one item and its recorded Papp A→B at 1 h value.
readout name: Papp A→B at 1 h (×10⁻⁶ cm/s)

chemical string	unit name	observed value
CCC1=C(CC)/C(=C/NC23C[C@H]4C[C@@H](C2)C[C@@H](C3)C4)N=C1c1ccc(C)[nH]1	×10⁻⁶ cm/s	0.027
CCc1ccc(C2=N/C(=C\NC3CCCCC3)C3=C2OCCO3)[nH]1	×10⁻⁶ cm/s	0.25
CCC1=C(C)/C(=C/NC2CCCCC2)N=C1c1ccc(C)[nH]1	×10⁻⁶ cm/s	0.33
CCC1=C(CC)/C(=C/N[C@H]2CC[C@H](C)CC2)N=C1c1ccc[nH]1	×10⁻⁶ cm/s	0.015
CCC1=C(CC)/C(=C/NC2CCCCCC2)N=C1c1ccc(Cl)[nH]1	×10⁻⁶ cm/s	0.19
CCC1=C(CC)/C(=C/NC2CCCCC2)N=C1c1ccc(Cl)[nH]1	×10⁻⁶ cm/s	0.71
CCC1=C(CC)/C(=C/N[C@H]2CC[C@H](C(F)(F)F)CC2)N=C1c1ccc[nH]1	×10⁻⁶ cm/s	1.4
CCC1=C(CC)/C(=C/NC23C[C@H]4C[C@@H](C2)C[C@@H](C3)C4)N=C1c1cc2cc(Cl)ccc2[nH]1	×10⁻⁶ cm/s	0.002
CCC1=C(CC)/C(=C/NC23C[C@H]4C[C@@H](C2)C[C@@H](C3)C4)N=C1c1ccc(Br)[nH]1	×10⁻⁶ cm/s	0.002
C(/NC12C[C@H]3C[C@@H](C1)C[C@@H](C2)C3)=C1/N=C(c2ccc[nH]2)C2=C1OCCO2	×10⁻⁶ cm/s	0.14

---

test description: Metabolic stability in human liver microsomes assessed as half life measured up to 60 mins by LC/MS analysis
Type: ADME, Microsome
readout name: half-life

chemical string	observed value
COc1ccc(Cc2ccc(C3=N/C(=C\NC4CCCCC4)C4=C3CCCC4)[nH]2)cc1	> 60 min
CCC1=C(CC)/C(=C/NC2CCCCCC2)N=C1c1ccc(-c2ccccc2)[nH]1	22.5 min
CCc1ccc(C2=N/C(=C\NC3CCCCC3)C(OC)=C2OC)[nH]1	> 60 min
CCC1=C(CC)/C(=C/NC23CC4CC(CC(C4)C2)C3)N=C1c1cc2ccccc2[nH]1	> 60 min
COc1ccc(C2=C(c3ccc(OC)cc3)/C(=C/NC34C[C@H]5C[C@@H](C3)C[C@@H](C4)C5)N=C2c2ccc[nH]2)cc1	52.1 min
CCC1=C(CC)/C(=C/NC2CCCCCC2)N=C1c1ccc(Cc2ccc(OC)cc2)[nH]1	> 60 min
C[C@H]1CC[C@H](N/C=C2\N=C(c3ccc[nH]3)C3=C2CCCC3)CC1	25.6 min
CCC1=C(CC)/C(=C/NC2CCCCCCC2)N=C1c1ccc(-c2ccccc2)[nH]1	32.9 min
CCc1ccc(C2=N/C(=C\NC3CCCCCC3)C(OC)=C2OC)[nH]1	> 60 min
CC1=C(C)/C(=C/NC2CCCCCC2)N=C1c1ccc(C)[nH]1	55 min
CCC1=C(CC)/C(=C/NC2CCCCCCC2)N=C1c1ccc(C)[nH]1	> 60 min
C(/NC1CCCCCC1)=C1/N=C(c2ccc[nH]2)C2=C1OCCO2	14.9 min
CCC1=C(CC)/C(=C/NC23C[C@H]4C[C@@H](C2)C[C@@H](C3)C4)N=C1c1ccc(Cl)[nH]1	> 60 min
CCC1=C(CC)/C(=C/NC2CCCCC2)N=C1c1ccc(Cl)[nH]1	> 60 min
CCC1=C(CC)/C(=C/NC2CCCCCCC2)N=C1c1ccc(Cl)[nH]1	> 60 min
CCC1=C(CC)/C(=C/NC2CCCCCC2)N=C1c1ccc(Cl)[nH]1	> 60 min
CCC1=C(CC)/C(=C/NC23C[C@H]4C[C@@H](C2)C[C@@H](C3)C4)N=C1c1cc2cc(OC)ccc2[nH]1	> 60 min
CCC1=C(CC)/C(=C/NC2CCCCC2)N=C1c1ccc[nH]1	30.5 min
CCC1=C(CC)/C(=C/N[C@H]2CC[C@H](C(F)(F)F)CC2)N=C1c1ccc[nH]1	22.5 min

---

test description: in vitro
run conditions: human
Description: Selectivity index, ratio of IC50 for cytotoxicity against human HepG2 cells to IC50 for antiplasmodial activity against asexual blood-stage Plasmodium falciparum D6
Consider the cut-off 200. If the recorded selectivity ratio is strictly smaller, the label is YES; if not, the label is NO.

chemical string	group
CCC1=C(C)/C(=C/NC2CCCCCC2)N=C1c1ccc[nH]1	NO
COC1=C(OC)/C(=C/NC23C[C@H]4C[C@@H](C2)C[C@@H](C3)C4)N=C1c1ccc[nH]1	NO
CCC1=C(CC)/C(=C/NC23CC4CC(CC(C4)C2)C3)N=C1c1cc2ccccc2[nH]1	YES
CCC1=C(CC)/C(=C/NC23CC4CC(CC(C4)C2)C3)N=C1c1ccc[nH]1	NO
CCC1=C(CC)/C(=C/N[C@H]2CC[C@H](C)CC2)N=C1c1ccc[nH]1	NO

---

Each entry below lists one item and its recorded pIC50 value.
Tested on: Plasmodium falciparum
test description: microbe, parasite or virus in culture
run conditions: Dd2, 72 h
Description: Antiplasmodial activity against asexual blood-stage Plasmodium falciparum Dd2 using 2% haematocrit and 0.2% parasitemia assessed as reduction in fluorescence measured after 72 hrs by Malaria SYBR Green I-based Fluorescence (MSF) assay
pIC50: −log10 of the molar value.
readout name: pIC50

chemical string	qualifier operator	observed value
CCC1=C(CC)/C(=C/NC2CCCCCCC2)N=C1c1ccc(Cc2ccc(OC)cc2)[nH]1	=	7.97
COc1ccc(OC2=C(Oc3ccc(OC)cc3)/C(=C/NC3CCCCCC3)N=C2c2ccc[nH]2)cc1	=	5.76
CCC1=C(CC)/C(=C/NC2CCCCC2)N=C1c1ccccc1F	<	5.60
COc1ccc(OC2=C(Oc3ccc(OC)cc3)/C(=C/NC3CCCCC3)N=C2c2ccc[nH]2)cc1	=	5.83
CCC1=C(CC)/C(=C/NC23C[C@H]4C[C@@H](C2)C[C@@H](C3)C4)N=C1c1ccc(Cl)[nH]1	=	8.05
CCC1=C(CC)/C(=C/NC23C[C@H]4C[C@@H](C2)C[C@@H](C3)C4)N=C1c1cc2cc(Cl)ccc2[nH]1	=	6.88
CC1=C(C)/C(=C/NC2CCCCC2)N=C1c1ccc(C)[nH]1	=	8.38
CCC1=C(CC)/C(=C/NC2CCCCCC2)N=C1c1ccc(CC)[nH]1	=	8.49
CCC1=C(CC)/C(=C/NC23C[C@H]4C[C@@H](C2)C[C@@H](C3)C4)N=C1c1ccccc1OCCN(C)C	=	5.61
CCC1=C(CC)/C(=C/NC23CC4CC(CC(C4)C2)C3)N=C1c1cc2ccccc2[nH]1	=	7.23
CCC1=C(CC)/C(=C/NC23C[C@H]4C[C@@H](C2)C[C@@H](C3)C4)N=C1c1cc2cc(OC)ccc2[nH]1	=	7.34
CCC1=C(CC)/C(=C/NC23C[C@H]4C[C@@H](C2)C[C@@H](C3)C4)N=C1c1ccccc1O	=	6.73
CCC1=C(C)/C(=C/NC23C[C@H]4C[C@@H](C2)C[C@@H](C3)C4)N=C1c1ccc(CC)[nH]1	=	9.46
CCC1=C(CC)/C(=C/NC2CCCCC2)N=C1c1ccn[nH]1	<	5.60
CCC1=C(C)/C(=C/NC2CCCCCC2)N=C1c1ccc[nH]1	=	7.26
CCc1c(C(=O)NC2CCCCC2)[nH]c(-c2ccc[nH]2)c1CC	<	5.60
C(/NC1CCCCC1)=C1/N=C(c2ccc[nH]2)C2=C1OCCO2	=	7.27
CCC1=C(CC)/C(=C/NC2CCCCCCC2)N=C1c1ccc(-c2ccccc2)[nH]1	=	7.32

---

Tested on: HepG2
test description: Cytotoxicity against human HepG2 cells assessed as cell viability measured after 48 hrs by MTT assay
Format: toxicity, cell-based
run conditions: hepg2

chemical string	IC50 (µM)
CCC1=C(CC)/C(=C/NC2CCCCCCC2)N=C1c1ccc(Br)[nH]1	9.48
FC(F)(F)[C@H]1CC[C@H](N/C=C2\N=C(c3ccc[nH]3)C3=C2CCCC3)CC1	12.4
CCC1=C(C)/C(=C/NC2CCCCCC2)N=C1c1ccc(CC)[nH]1	4.23
CCC1=C(CC)/C(=C/NC2CCCCCC2)N=C1c1ccc(Cc2ccc(OC)cc2)[nH]1	4.34
CCc1ccc(C2=N/C(=C\NC3CCCCCC3)C3=C2CCCC3)[nH]1	1.06
CCc1ccc(C2=N/C(=C\NC3CCCCC3)C3=C2CCCC3)[nH]1	1.19
CCC1=C(CC)/C(=C/NC2CCCCCC2)N=C1c1ccc(CC)[nH]1	3.65
COc1ccc(Cc2ccc(C3=N/C(=C\NC4CCCCC4)C4=C3CCCC4)[nH]2)cc1	2.02
CCC1=C(CC)/C(=C/NC2CCCCC2)N=C1c1ccc(-c2ccc(OC)cc2)[nH]1	6.57
CCC1=C(CC)/C(=C/NC2CCCCCCC2)N=C1c1ccc(C)[nH]1	3.19
C[C@H]1CC[C@H](N/C=C2\N=C(c3ccc[nH]3)C3=C2CCCC3)CC1	7.77
CCC1=C(CC)/C(=C/NC2CCCCC2)N=C1c1ccc(C)[nH]1	7.53
CCc1ccc(C2=N/C(=C\NC3CCCCC3)C(OC)=C2OC)[nH]1	11.4
CCC1=C(C)/C(=C/NC2CCCCCCC2)N=C1c1ccc(CC)[nH]1	4.28
C(/NC1CCCCCC1)=C1/N=C(c2ccc[nH]2)C2=C1OCCO2	7.69
CCC1=C(CC)/C(=C/NC23C[C@H]4C[C@@H](C2)C[C@@H](C3)C4)N=C1c1ccccc1O	12.2
